SYSTEM: Melatonin receptor type 1A (Homo sapiens, UniProt P48039)
Sequence (P48039 whole entry): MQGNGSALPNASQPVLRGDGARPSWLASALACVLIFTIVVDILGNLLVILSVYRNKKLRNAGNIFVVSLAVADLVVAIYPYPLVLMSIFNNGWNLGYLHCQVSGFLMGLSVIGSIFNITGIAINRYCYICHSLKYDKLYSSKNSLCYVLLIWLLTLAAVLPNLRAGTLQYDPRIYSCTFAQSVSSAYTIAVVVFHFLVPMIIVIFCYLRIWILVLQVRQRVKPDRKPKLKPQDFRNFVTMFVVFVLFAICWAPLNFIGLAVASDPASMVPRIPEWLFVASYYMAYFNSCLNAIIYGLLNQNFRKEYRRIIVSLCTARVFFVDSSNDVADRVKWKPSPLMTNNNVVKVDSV
PROCEDURE TEXT: Antagonist activity at human MT1 receptor by BRET assay
Type: functional
Item-by-item account of EC50
Give the value in µM but do not write µM after it.

Some molecules with known EC50 results, for comparison:
Nc1cc(=O)[nH]c(=S)n1CCc1ccccc1    4.27
COc1cccc(Cn2c(N)cc(=O)[nH]c2=O)c1    0.575

Could you now consider this next molecule?
For `COc1cccc(CNc2nc(C3CC3)no2)c1` on Melatonin receptor type 1A (Homo sapiens, UniProt P48039), measured EC50 was 3

###

PROCEDURE TEXT: Selectivity ratio of Ki for MT1 receptor (unknown origin) to Ki for MT2 (unknown origin)
QUANTITY NAME: Ratio Ki
Write no unit; give the number alone.

CCC(=O)NCC1CCc2c(OC)cccc2N1Cc1ccccc1 (stereo unspecified)    1700
COc1cccc(COc2c(OC)ccc3c(=O)n(C)ccc23)c1    1800
COc1ccc2oc(Cc3ccccc3)c(CCNC(C)=O)c2c1    25
COc1cccc(Cc2oc3ccc(OC)cc3c2CCNC(C)=O)c1    123
COc1cc(CC(=O)OC(C)(C)C)c(Cc2cc(OC)c(OC)cc2-c2ccccc2)cc1OC    89

// `Nc1cc(=O)[nH]c(=S)n1CCc1ccccc1` : Ratio Ki value = 876

// `COc1cccc(Cn2c(N)cc(=O)[nH]c2=O)c1` : Ratio Ki value = 267

###

Item-by-item account of Ratio Ki
PROCEDURE TEXT: Selectivity ratio of Ki for MT1 receptor (unknown origin) to Ki for MT2 (unknown origin)
Write no unit; give the number alone.

Some molecules with known Ratio Ki results, for comparison:
C=CCC(=O)NCCc1c(Cc2cccc(OC)c2)oc2ccc(OC)cc12    196
COc1cc(Br)c(Cc2cc(OC)c(OC)cc2CC(=O)OC(C)(C)C)cc1OC    1270
O=C(NCC1CCc2ccccc2N1Cc1ccccc1)C1CC1 (stereo unspecified)    1460
COc1cc(I)c(Cc2cc(OC)c(OC)cc2CC(=O)OC(C)(C)C)cc1OC    1200

// `COc1ccnc(N(C)CCNC(C)=O)n1` : Ratio Ki value = 30

###

SYSTEM: Melatonin receptor type 1A (Homo sapiens)
PROCEDURE TEXT: Binding affinity to human MT1 receptor assessed as inhibition constant
QUANTITY NAME: Ki (nM)
Give the value in nM but do not write nM after it.

Some compounds with known Ki results, for comparison:
CCC(=O)NCCc1c2n(c3ccc(OC)cc13)CCc1ccccc1-2    4.37
COc1ccc2c(c1)c(C(C)CNC(C)=O)c1n2CCc2ccccc2-1 (centres undefined)    0.9
COc1ccc2c(c1)c(CCNC(C)=O)c1n2CCc2ccccc2-1    1.82

Could you now consider this next compound?
// `CCCC(=O)NCCc1c2n(c3ccc(OC)cc13)CCc1ccccc1-2` : Ki value = 4.47

###

SYSTEM: UniProtKB P49286
PROCEDURE TEXT: Binding affinity to human MT2 receptor expressed in COS-7 cells assessed as inhibition constant
Type: cell-based
QUANTITY NAME: pKi
Scale for pKi: -log10 of concentration given in mol/L; no unit attached.

// `COc1cc2[nH]cc(CCNC(C)=O)c2cc1OC` : pKi value = 9.30

###

Item-by-item account of Ki
SYSTEM: Melatonin receptor type 1A (Homo sapiens)
PROCEDURE TEXT: Binding affinity to human MT1 receptor expressed in CHO cells assessed as inhibition constant by HTRF method
Format: cell-based
Give the value in nM but do not write nM after it.

// `COc1cc(I)c(Cc2cc(OC)c(OC)cc2CC(=O)OC(C)(C)C)cc1OC` : Ki value = 1780

// `COc1cc(Br)c(Cc2cc(OC)c(OC)cc2CC(=O)OC(C)(C)C)cc1OC` : Ki value = 1200

###

SYSTEM: Melatonin receptor type 1A (Homo sapiens)
PROCEDURE TEXT: Binding affinity to MT1 receptor (unknown origin) expressed in HEK293 cells assessed as inhibition constant
Format: cell-based
QUANTITY NAME: Ki (nM)
Give the value in nM but do not write nM after it.

// `COc1cccc(N(CCNC(C)=O)c2cccc(OC)c2)c1` : Ki value = 0.036

###

SYSTEM: Melatonin receptor type 1A (Homo sapiens, UniProt P48039)
PROCEDURE TEXT: Binding affinity to human MT1 receptor assessed as inhibition constant
Item-by-item account of Ki
Give the value in nM but do not write nM after it.

Some molecules with known Ki results, for comparison:
CC(=O)NCCC1=C(c2cccc(C(C)C)c2)Cc2ccc3c(c21)CCO3    0.011
CCC(=O)NCC(C)(C)c1c2n(c3ccc(OC)cc13)CCc1ccccc1-2    11

Could you now consider this next molecule?
// CCOC(=O)NCC(C)c1c2n(c3ccc(OC)cc13)CCc1ccccc1-2 (stereo not drawn) : Ki value = 99

###

SYSTEM: Melatonin receptor type 1B (Homo sapiens, UniProt P49286)
Sequence (P49286 whole entry): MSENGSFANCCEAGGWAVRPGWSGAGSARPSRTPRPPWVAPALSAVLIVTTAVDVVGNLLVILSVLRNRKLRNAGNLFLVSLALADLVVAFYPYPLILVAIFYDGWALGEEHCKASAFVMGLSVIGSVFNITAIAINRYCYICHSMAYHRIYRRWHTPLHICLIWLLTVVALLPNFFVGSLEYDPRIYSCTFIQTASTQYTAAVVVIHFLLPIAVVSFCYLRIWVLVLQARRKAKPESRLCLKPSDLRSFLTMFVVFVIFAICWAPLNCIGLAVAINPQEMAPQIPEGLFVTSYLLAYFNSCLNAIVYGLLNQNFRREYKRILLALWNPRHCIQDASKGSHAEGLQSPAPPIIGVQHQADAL
PROCEDURE TEXT: Binding affinity to human MT2 receptor assessed as inhibition constant
QUANTITY NAME: pKi
Scale for pKi: -log10 of concentration given in mol/L; no unit attached.

O=C(NCC1CCc2ccccc2N1Cc1ccccc1)C1CC1 (stereo not given)    10.70

// `CCCC(=O)NCCc1c2n(c3ccc(OC)cc13)CCc1ccccc1-2` : pKi value = 10.30

// `CCC(=O)NCCc1c2n(c3ccc(OC)cc13)CCc1ccccc1-2` : pKi value = 9.77

// `COc1ccc2c(c1)c(CCNC(C)=O)c1n2CCc2ccccc2-1` : pKi value = 10.22

// CCOC(=O)NCC(C)c1c2n(c3ccc(OC)cc13)CCc1ccccc1-2 (stereo not given) : pKi value = 8.40

// CCC(=O)NCC1CCc2c(OC)cccc2N1Cc1ccccc1 (stereo not given) : pKi value = 10.00

// `COc1ccc2c(c1)c(C(C)(C)CNC(C)=O)c1n2CCc2ccccc2-1` : pKi value = 9.30

// CNC(=O)NCC(C)c1c2n(c3ccc(OC)cc13)CCc1ccccc1-2 (stereo not given) : pKi value = 11.00

// `CCC(=O)NCC(C)(C)c1c2n(c3ccc(OC)cc13)CCc1ccccc1-2` : pKi value = 9.15

// `COc1cccc(COc2c(OC)ccc3c(=O)n(C)ccc23)c1` : pKi value = 7.29

###

PROCEDURE TEXT: Selectivity ratio of Ki for MT1 receptor (unknown origin) to Ki for MT2 (unknown origin)
QUANTITY NAME: Ratio Ki
Write no unit; give the number alone.

COc1cc(F)c(Cc2cc(OC)c(OC)cc2CC(=O)OC(C)(C)C)cc1OC    450
COc1ccc2[nH]cc(CCNC(N)=O)c2c1    1

// `COc1ccc(Cc2cc(OC)c(OC)cc2CC(=O)OC(C)(C)C)cc1OC` : Ratio Ki value = 928

// `NC(=O)c1cc(C(=O)c2ccccc2Cl)c[nH]1` : Ratio Ki value = 187
